System: RPMI-8226 leukemia
Test: NCI-60 one-dose screen, 48 h
Conditions: 10 µM
About 83,000 compounds went through this panel and 20% of them were active in at least one assay; those are over-represented in the sample as a whole. The source made the active and inactive calls. The calls were made as follows: active = growth percent below 10; inactive = the rest.
Outcome field: choose from t = active, f = inactive

Known results for molecules:
MOLECULE: O=C(CCl)N1CCN(C/C=C/c2ccccc2)CC1
ASSIGNED_LABEL: f
//
MOLECULE: COc1cc(OC)c2ccc(=O)oc2c1
ASSIGNED_LABEL: f

Hi, sorry to bother you, what did the test record for `Nc1ccccc1C(=O)Nc1ccc(Cl)cc1Cl` ?
f

Hi, sorry to bother you, what did the test record for `Oc1ccc(N=Nc2ccc(Br)cc2)c(O)c1` ?
t

Hi, sorry to bother you, what did the test record for `N#C/C(=C\c1cc(O)c(O)c(O)c1)C(N)=O` ?
f

Hi, sorry to bother you, what did the test record for `NC(=O)c1ccc(N=C(N)N=C(N)N)cc1` ?
f

Hi, sorry to bother you, what did the test record for `CC(C)CCOC(=O)c1ccccc1` ?
f

Hi, sorry to bother you, what did the test record for `CCOC(=O)/C(=C/c1ccc(OC)cc1)N(CC)CC` ?
f

Hi, sorry to bother you, what did the test record for COc1ccc(C2OC(N)=C(O)C2=O)cc1OC (centres undefined) ?
f

Source listed as PubChem BioAssay (NCI).
